# TARGET_ENTITY: T1, HLA-A*0201 (human)
# T1 construct: also called HLA-A2
# PROTOCOL_TEXT: listed as presented with class I MHC on cancer cells (leukemia or transformed B cells)
Non-standard residues stand in square brackets, D forms with d. No end group written: not given here. pS = N[C@@H](COP(=O)(O)O)C(=O)O
ASSAY_READOUT: binding result

MLAE[pS]PSVPRL (From Putative uncharacterized protein, UniProt Q8WUC7) [MLAEsPSVPRL] ... binds
KMD[pS]FLDMQL [KMDsFLDMQL] ... binds
ILD[pS]GIYRI (From Hermansky-Pudlak syndrome 5 protein, UniProt Q9UPZ3) [ILDsGIYRI] ... binds

Source of measurements: patent US20150224182A1
